assay: In vivo pharmacokinetic study in SD rats; details: Sprague-Dawley, rat, iv, 2 mg/kg
measuredQuantity: Tmax (min)
State just the number; it will be interpreted in min.

Enquiry: Sample Nc1ccc(S(=O)(=O)N2CCN(CC(=O)N[C@@H](Cc3cc(F)cc(F)c3)c3nc4ccccc4c(=O)n3-c3ccc(S(=O)(=O)N4CCOCC4)cc3)C(=O)C2)cc1 [21a2] — what was its Tmax?
Return: 4.98

###

experiment: In vivo pharmacokinetic study in SD rats; conditions: Sprague-Dawley, rat, po, 20 mg/kg
measuredQuantity: AUC(0-t) (ng·h/mL)
State just the number; it will be interpreted in ng·h/mL.

Enquiry: Sample Nc1ccc(S(=O)(=O)N2CCN(CC(=O)N[C@@H](Cc3cc(F)cc(F)c3)c3nc4ccccc4c(=O)n3-c3ccc(S(=O)(=O)N4CCOCC4)cc3)C(=O)C2)cc1 [21a2] — what was its AUC(0-t)?
Return: 10.8
